- experimental.details: Cytotoxicity against african green monkey Vero cells after 72 hrs by MTS assay
- condition.info: chlorocebus sabaeus, Vero cells
assay.readout: selectivity ratio at 72 h

[
  {
    "smiles.representation": "CO[C@H]1/C=C/O[C@@]2(C)Oc3c(C)c(O)c4c(O)c(c(/C=N/N5CCN(C)CC5)c(O)c4c3C2=O)NC(=O)/C(C)=C\\C=C\\[C@H](C)[C@H](O)[C@@H](C)[C@@H](O)[C@@H](C)[C@H](OC(C)=O)[C@@H]1C",
    "recorded.measurement": 1080
  }
]

---

Measured GI50 of individual entries
- System: NCI-H460
- experimental.details: Cytotoxicity against human NCI-H460 cells
- Format: functional

[
  {
    "smiles.representation": "N#Cc1ccc(/C=N/Nc2ncnc3sc4c(c23)CCCC4)cc1",
    "GI50": "> 170 µM"
  },
  {
    "smiles.representation": "O=[N+]([O-])c1ccc(/C=N/Nc2ncnc3sc4c(c23)CCCC4)cc1",
    "GI50": "> 170 µM"
  },
  {
    "smiles.representation": "Fc1ccccc1/C=N/Nc1ncnc2sc3c(c12)CCCC3",
    "GI50": "> 250 µM"
  }
]
